target_or_system: human mAChR M4 (Homo sapiens)
Construct: expressed in transfected cells; host or cells: CHO-K1 (ATCC), stably expressing hM4 and Gqi5
measurement_description: mAChR M4 cell-based functional assay: calcium flux (Fluo-4, FDSS), positive allosteric modulator activity on the EC20 acetylcholine response, hM4-Gqi5 CHO-K1 cells
test_conditions: human M4; PAM activity on EC20 acetylcholine response, calcium flux; read-out: Human M4 EC50
assay_endpoint: EC50 (nM)

I. Cc1cc(F)ncc1-c1cnc2c(c1)CN(c1ncnc3ccc(Cl)cc13)CC2 [Compound 310]
II. Cc1nc(N2CCc3ncc(C(F)(F)F)cc3C2)c2ccccc2n1 [Compound 138]
III. COc1ccc2ncnc(N3CCc4ncc(N5CCC(C(F)(F)F)n6nccc65)cc4C3)c2c1 (stereo not drawn) [Compound 90]
Q: List the items above again, this time ordered by increasing EC50. # list labels per requested ordering
A: I, II, III
(I: 60 nM, II: 480 nM, III: 1360 nM)

---

target_or_system: human mAChR M4 (Homo sapiens, UniProt P08173)
Construct: expressed in transfected cells; host or cells: CHO-K1 (ATCC), stably expressing hM4 and Gqi5
Sequence (P08173 whole entry): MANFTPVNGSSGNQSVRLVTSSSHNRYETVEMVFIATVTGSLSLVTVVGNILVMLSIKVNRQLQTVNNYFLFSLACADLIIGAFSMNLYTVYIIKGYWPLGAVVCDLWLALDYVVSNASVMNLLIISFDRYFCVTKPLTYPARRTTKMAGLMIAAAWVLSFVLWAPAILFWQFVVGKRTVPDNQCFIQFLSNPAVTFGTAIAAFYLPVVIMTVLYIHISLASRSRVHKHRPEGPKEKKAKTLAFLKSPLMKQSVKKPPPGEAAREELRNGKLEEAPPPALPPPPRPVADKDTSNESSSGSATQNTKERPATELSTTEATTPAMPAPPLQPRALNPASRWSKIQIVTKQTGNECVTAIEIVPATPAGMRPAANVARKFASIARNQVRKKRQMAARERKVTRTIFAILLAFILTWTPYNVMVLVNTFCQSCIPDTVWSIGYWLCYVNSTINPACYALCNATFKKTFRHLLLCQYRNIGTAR
measurement_description: mAChR M4 cell-based functional assay: calcium flux (Fluo-4, FDSS), positive allosteric modulator activity on the EC20 acetylcholine response, hM4-Gqi5 CHO-K1 cells
test_conditions: CHO-K1, human M4; % ACh maximum at 30 μM
assay_endpoint: Emax at 30 µM (%)

| structure_as_smiles | target_or_system | assay_endpoint | measured_value |
| --- | --- | --- | --- |
| Cc1nc(N2CCc3ncc(C(F)(F)F)cc3C2)c2c(F)cccc2n1 | human mAChR M4 (Homo sapiens, UniProt P08173) | Emax at 30 µM | 78 |
| Cc1nn(C)cc1-c1cnc2c(c1)CN(c1nc(C3CC3)nc3ccc(Cl)cc13)CC2 | human mAChR M4 (Homo sapiens, UniProt P08173) | Emax at 30 µM | 80 |
| Fc1ccc(Cc2cnc3c(c2)CN(c2ncnc4ccc(F)cc24)CC3)cc1 | human mAChR M4 (Homo sapiens, UniProt P08173) | Emax at 30 µM | 82 |
| Cc1nc(N2CCc3ncc(N4CCN(C)C(=O)C4)cc3C2)c2cc(Cl)ccc2n1 | human mAChR M4 (Homo sapiens, UniProt P08173) | Emax at 30 µM | 82 |

---

target_or_system: human mAChR M4 (Homo sapiens)
Construct: expressed in transfected cells; host or cells: CHO-K1 (ATCC), stably expressing hM4 and Gqi5
measurement_description: mAChR M4 cell-based functional assay: calcium flux (Fluo-4, FDSS), positive allosteric modulator activity on the EC20 acetylcholine response, hM4-Gqi5 CHO-K1 cells
test_conditions: human M4; PAM activity on EC20 acetylcholine response, calcium flux; read-out: Human M4 EC50
Method: […] Calcium flux was measured using the Functional Drug Screening System (FDSS) 6000 or 7000 (Hamamatsu Corporation, Tokyo, Japan) as an increase in the fluorescent static ratio. […] Agonist activity was analyzed as a concentration-dependent increase in calcium mobilization upon compound addition. Positive allosteric modulator activity was analyzed as a concentration-dependent increase in the EC20 acetylcholine response. […]
pEC50: −log10 of the molar value.
assay_endpoint: pEC50

Observe how each entry below is paired with its result.
| molecule | target_or_system | pEC50 |
| --- | --- | --- |
| Fc1ccc2ncnc(N3CCc4ncc(-c5ccc(C(F)(F)F)nc5)cc4C3)c2c1 | human mAChR M4 (Homo sapiens) | 6.44 |
| Cc1nc(N2CCc3ncc(-c4c(C)noc4C)cc3C2)c2cc(F)ccc2n1 | human mAChR M4 (Homo sapiens) | 6.92 |
| Cc1nc(N2CCc3ncc(-c4c(C)cnn4C)cc3C2)c2cc(Cl)ccc2n1 | human mAChR M4 (Homo sapiens) | 6.85 |
| Cc1nc(N2CCc3ncc(N4CCOc5ncccc54)cc3C2)c2cc(Cl)ccc2n1 | human mAChR M4 (Homo sapiens) | 6.85 |
| FC(F)(F)c1cnc2c(c1)CN(c1nc(Cl)nc3ncccc13)CC2 | human mAChR M4 (Homo sapiens) | 6.44 |
| COc1cc2c(N3CCc4ncc(C(F)(F)F)cc4C3)nc(C)nc2cc1F | human mAChR M4 (Homo sapiens) | 6.59 |
| Clc1nc(N2CCc3ncc(-c4cnn(C5CC5)c4)cc3C2)c2cccnc2n1 | human mAChR M4 (Homo sapiens) | 6.22 |
| Fc1ccc2ncnc(N3CCc4ncc(N5CCO[C@@H](c6ccccc6)C5)cc4C3)c2c1 | human mAChR M4 (Homo sapiens) | 5.71 |

I. Cc1nc(N2CCc3ncc(-c4ccc(N(C)C)nc4)cc3C2)c2cc(F)ccc2n1
II. Clc1ccc2ncnc(N3CCc4ncc(N5CCCn6nccc65)cc4C3)c2c1
III. [2H]c1nc(N2CCc3ncc(C(F)(F)F)cc3C2)c2cc(F)ccc2n1
IV. CC1CN(c2ncnc3ccc(F)cc23)Cc2cc(N3CCOCC3)cnc21 (centres unmarked)
V. CN1CCN(c2cnc3c(c2)CN(c2ncnc4ccc(F)cc24)CC3)CC1=O
Q: Arrange the 5 entries by pEC50 so the values rise. # list labels per requested ordering
A: V, I, IV, III, II

I. Cc1ccc2ncnc(N3CCc4ncc(C5CC5)cc4C3)c2c1
II. CC1CN(c2ncnc3ccc(F)cc23)Cc2cc(C(F)(F)F)cnc21 (single isomer, unassigned) [Compound 116]
Q: // compare measured pEC50 between I and II ; output the lower one Lab log: write the label of the selected item as the result.
A: II

1. [2H]C1([2H])N(c2cnc3c(c2)CN(c2ncnc4ccc(F)cc24)CC3)c2ccnn2C([2H])([2H])C1([2H])[2H]
2. Cn1nccc1Nc1cnc2c(c1)CN(c1nc(NCC(C)(C)O)nc3ccc(F)cc13)CC2
Q: // compare measured pEC50 between 1 and 2 ; output the lower one Lab log: write the label of the selected item as the result.
A: 2
(2: 6.72, 1: 7.52)

---

target_or_system: human mAChR M4 (Homo sapiens, UniProt P08173)
Construct: expressed in transfected cells; host or cells: CHO-K1 (ATCC), stably expressing hM4 and Gqi5
measurement_description: mAChR M4 cell-based functional assay: calcium flux (Fluo-4, FDSS), positive allosteric modulator activity on the EC20 acetylcholine response, hM4-Gqi5 CHO-K1 cells
test_conditions: CHO-K1, human M4; % ACh maximum at 30 μM
Description: […] Calcium flux was measured using the Functional Drug Screening System (FDSS) 6000 or 7000 (Hamamatsu Corporation, Tokyo, Japan) as an increase in the fluorescent static ratio. […] Agonist activity was analyzed as a concentration-dependent increase in calcium mobilization upon compound addition. Positive allosteric modulator activity was analyzed as a concentration-dependent increase in the EC20 acetylcholine response. […]
assay_endpoint: Emax at 30 µM (%)

| structure_as_smiles | target_or_system | Emax at 30 µM / % |
| --- | --- | --- |
| Cc1ccc(Oc2cnc3c(c2)CN(c2ncnc4ccc(F)cc24)CC3)c(F)c1 | human mAChR M4 (Homo sapiens, UniProt P08173) | 74 |
| Cc1nc(N2CCc3ncc(-c4ccnn4C)cc3C2)c2cc(F)ccc2n1 | human mAChR M4 (Homo sapiens, UniProt P08173) | 86 |
| Fc1ccc2ncnc(N3CCc4ncc(N5CCOc6ncccc65)cc4C3)c2c1 | human mAChR M4 (Homo sapiens, UniProt P08173) | 98 |
| Cc1ccc(F)c(Oc2cnc3c(c2)CN(c2ncnc4ccc(F)cc24)CC3)c1 | human mAChR M4 (Homo sapiens, UniProt P08173) | 88 |
| Cc1nc(N2CCc3ncc(-c4cnc(C)s4)cc3C2)c2cc(F)ccc2n1 | human mAChR M4 (Homo sapiens, UniProt P08173) | 93 |
| COc1ccc2ncnc(N3CCc4ncc(-c5cnc(F)cc5C)cc4C3)c2c1 | human mAChR M4 (Homo sapiens, UniProt P08173) | 71 |
| C[C@@H]1CN(c2ncnc3ccc(F)cc23)Cc2cc(N3CCOCC3)cnc21 | human mAChR M4 (Homo sapiens, UniProt P08173) | 91 |
| Cc1ccc2nc(C)nc(N3CCc4ncc(-c5cn(C)nc5C)cc4C3)c2c1 | human mAChR M4 (Homo sapiens, UniProt P08173) | 84 |
| Cc1ncc(-c2cnc3c(c2)CN(c2ncnc4cc(F)c(F)cc24)CC3)s1 | human mAChR M4 (Homo sapiens, UniProt P08173) | 87 |
| Cc1nn(C)cc1-c1cnc2c(c1)CN(c1nc(Cl)nc3ccc(Cl)cc13)CC2 | human mAChR M4 (Homo sapiens, UniProt P08173) | 103 |
| Fc1ncccc1Nc1cnc2c(c1)CN(c1nc(Cl)nc3ccc(Cl)cc13)CC2 | human mAChR M4 (Homo sapiens, UniProt P08173) | 103 |
| Fc1cc2ncnc(N3CCc4ncc(C(F)(F)F)cc4C3)c2cc1F | human mAChR M4 (Homo sapiens, UniProt P08173) | 102 |
| Cc1nc(N2CCc3ncc(C(F)(F)F)cc3C2)c2ccccc2n1 | human mAChR M4 (Homo sapiens, UniProt P08173) | 82 |
